target: importin-α1 (IMPα1) (human, UniProt P52292 2-529); assay: DUOLINK proximity ligation in permeabilised MDA-MB-231 cells; loss of the PDL1:IMPα1 complex, DL-2-NP 10 to 0.3 nM
Quantity: IC50 (nM)
State just the number; it will be interpreted in nM.

Q) Fill in the blank: the reported IC50 of ACLTFIFCRLRKGRCMMDVKK (N-terminal myristyl; cysteines covalently bound to the TBMB scaffold (bicyclic); peptide packaged in a POPC / cholesterol / DSPE-PEG lipid nanoparticle, Same peptide as DL-2, in a different formulation; also called DL-2-NP) [DL-2 nanoparticle (DL-2 bicyclic peptide encapsulated in a lipid nanoparticle)] is ____.
A) 1
